Value source: ChEMBL document CHEMBL1177766

- experiment: Clearance in human liver microsomes assessed per mg of protein by LC/MS analysis
- Assay type: ADME, Microsome
Field: microsomal CLint. Provide a value for each of the molecules that follow.
Reply with just the number (in µL/min/mg).

Data request, read-out microsomal CLint, for Fc1cc(N2CCNCC2Cc2ccccc2)cc2cc[nH]c12 (stereo not drawn)
16.8

Item under review: c1ccc(CC2CNCCN2c2ccc3[nH]ccc3c2)cc1 (stereo not drawn) . Reported microsomal CLint?
43.3

Field request: microsomal CLint | item: c1ccc(CC2CNCCN2c2ccc3[nH]ncc3c2)cc1 (stereo not drawn)
3.8
